STUDY TARGET: Tyrosine-protein kinase ABL1 (Homo sapiens)
Sequence (P00519 whole entry): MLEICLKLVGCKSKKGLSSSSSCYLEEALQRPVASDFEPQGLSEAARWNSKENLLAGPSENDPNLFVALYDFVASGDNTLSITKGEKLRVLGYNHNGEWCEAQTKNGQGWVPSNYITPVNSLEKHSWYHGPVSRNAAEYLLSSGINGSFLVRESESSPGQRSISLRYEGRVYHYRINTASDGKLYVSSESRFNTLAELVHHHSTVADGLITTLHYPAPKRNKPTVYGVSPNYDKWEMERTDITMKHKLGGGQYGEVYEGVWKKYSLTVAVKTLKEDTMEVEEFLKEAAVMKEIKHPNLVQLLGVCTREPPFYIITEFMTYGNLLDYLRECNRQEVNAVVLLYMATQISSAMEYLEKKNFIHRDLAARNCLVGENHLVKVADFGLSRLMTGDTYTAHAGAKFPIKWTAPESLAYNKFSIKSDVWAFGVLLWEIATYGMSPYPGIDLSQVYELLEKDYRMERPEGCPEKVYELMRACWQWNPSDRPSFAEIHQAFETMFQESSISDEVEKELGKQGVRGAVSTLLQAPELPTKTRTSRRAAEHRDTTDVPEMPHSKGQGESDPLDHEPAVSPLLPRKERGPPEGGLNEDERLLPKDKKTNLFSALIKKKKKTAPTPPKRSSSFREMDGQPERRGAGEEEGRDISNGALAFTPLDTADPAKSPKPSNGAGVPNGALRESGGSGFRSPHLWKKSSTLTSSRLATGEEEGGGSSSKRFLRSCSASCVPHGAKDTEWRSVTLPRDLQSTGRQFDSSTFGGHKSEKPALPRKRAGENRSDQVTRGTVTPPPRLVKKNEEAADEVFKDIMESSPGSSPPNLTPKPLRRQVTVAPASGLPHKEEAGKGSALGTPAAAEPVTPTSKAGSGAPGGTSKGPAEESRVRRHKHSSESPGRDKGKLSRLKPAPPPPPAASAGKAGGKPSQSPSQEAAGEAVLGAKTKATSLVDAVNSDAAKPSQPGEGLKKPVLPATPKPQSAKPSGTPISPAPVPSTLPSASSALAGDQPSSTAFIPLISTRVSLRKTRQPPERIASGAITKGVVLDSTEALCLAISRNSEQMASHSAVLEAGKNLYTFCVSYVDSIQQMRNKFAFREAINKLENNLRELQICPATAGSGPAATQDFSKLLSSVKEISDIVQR
ASSAY NOTES: Activation of full length human 6His-tagged c-Abl expressed in baculovirus expression system using abltide as substrate after 2 hrs by IMAP assay
ASSAY CONTEXT: read-out: pIC50 (converted)
ASSAY METRIC: EC50 for c-Abl activation (nM)

Past entries and their recorded results:
In plain terms, `O=C(Nc1nc(-c2ccc(Cl)c(Cl)c2)cs1)c1cccnc1` has a documented EC50 for c-Abl activation of 398

# EC50 for c-Abl activation of `CC(=O)NC1=NN(c2ccc(Cl)c(Cl)c2)CC1` = 316

[I] O=C(NC1=NN(c2ccc(Cl)c(Cl)c2)CC1)c1ccncn1
[II] O=C(NC1=NN(c2ccc(Cl)c(Cl)c2)CC1)c1ccnnc1
[III] Cn1ncc([N+](=O)[O-])c1C(=O)Nc1nc(-c2ccc(Cl)c(Cl)c2)cs1
[IV] C[C@H]1CN(c2ccc(Cl)c(Cl)c2)N=C1NC(=O)c1cncnc1
[in] Please produce an ascending ranking of these molecules based on EC50 for c-Abl activation. To answer, write out the labels according to the requested order.
[out] IV, III, II, I
